The measured values listed here are drawn from patent US8143290B2.

Target: recombinant human GR (Homo sapiens)
Sequence (P04150 1-777): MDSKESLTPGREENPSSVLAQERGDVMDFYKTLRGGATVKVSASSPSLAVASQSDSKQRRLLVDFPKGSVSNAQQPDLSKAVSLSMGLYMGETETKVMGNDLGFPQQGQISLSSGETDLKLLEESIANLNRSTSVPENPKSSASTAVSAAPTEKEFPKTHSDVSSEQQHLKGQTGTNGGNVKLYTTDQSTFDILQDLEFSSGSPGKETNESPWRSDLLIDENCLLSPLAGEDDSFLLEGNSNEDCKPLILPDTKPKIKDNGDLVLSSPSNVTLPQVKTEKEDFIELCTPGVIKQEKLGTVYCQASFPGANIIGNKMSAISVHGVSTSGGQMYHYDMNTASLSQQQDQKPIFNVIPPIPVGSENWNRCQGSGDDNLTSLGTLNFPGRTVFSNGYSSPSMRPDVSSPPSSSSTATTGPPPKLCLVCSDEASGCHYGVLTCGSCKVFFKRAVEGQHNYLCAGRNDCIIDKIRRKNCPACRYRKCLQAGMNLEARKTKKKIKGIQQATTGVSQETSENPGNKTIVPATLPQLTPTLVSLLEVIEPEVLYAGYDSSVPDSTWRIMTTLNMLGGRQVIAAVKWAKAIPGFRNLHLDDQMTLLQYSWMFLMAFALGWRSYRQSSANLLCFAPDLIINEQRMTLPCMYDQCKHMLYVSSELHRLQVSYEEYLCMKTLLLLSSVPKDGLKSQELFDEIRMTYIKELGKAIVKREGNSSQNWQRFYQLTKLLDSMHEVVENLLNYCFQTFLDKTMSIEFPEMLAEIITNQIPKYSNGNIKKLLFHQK
Assay: Human Glucocorticoid Receptor (GR) Assay, fluorescence polarization
Details: GS Red tracer, incubated 2 h at r.t., XLfit model 205, read-out: GRhuFL_FP_v2 Mean IC50
Provide the reported IC50 of each item.
Express the result in nM but write the number alone.

Q: Recall the reported IC50 of "COc1ccccc1[C@@H](Oc1ccc2c(cnn2-c2ccc(F)cc2)c1)[C@H](C)NC(=O)C1(C)CC1" when tested on recombinant human GR (Homo sapiens).
Result: 3.1

Q: Recall the reported IC50 of "COc1ccc(F)cc1[C@@H](Oc1ccc2c(cnn2-c2ccc(F)cc2)c1)[C@H](C)NC(=O)C(C)(C)F" when tested on recombinant human GR (Homo sapiens).
Result: 6.9

Q: Recall the reported IC50 of "Cc1ccc([C@@H](Oc2ccc3c(cnn3-c3ccc(F)cc3)c2)[C@H](C)NC(=O)C(C)(C)C)cc1F" when tested on recombinant human GR (Homo sapiens).
Result: 4.6

Q: Recall the reported IC50 of "Cc1cc(F)ccc1[C@@H](Oc1ccc2c(cnn2-c2ccc(F)cc2)c1)[C@H](C)NC(=O)C(C)(C)C" when tested on recombinant human GR (Homo sapiens).
Result: 3.7

Q: Recall the reported IC50 of "COc1cccc([C@@H](Oc2ccc3c(cnn3-c3ccc(F)cc3)c2)[C@H](C)N2C(=O)CNC2=O)c1" when tested on recombinant human GR (Homo sapiens).
Result: 21

Q: Recall the reported IC50 of "Cc1cnc(C(=O)N[C@@H](C)[C@H](Oc2ccc3c(cnn3-c3ccc(F)cc3)c2)c2cc(C)c(C)cc2C)s1" when tested on recombinant human GR (Homo sapiens).
Result: 7.5

Q: Recall the reported IC50 of "COc1cccc([C@@H](Oc2ccc3c(cnn3-c3ccc(F)cc3)c2)[C@H](C)NC(=O)c2ncc(C)s2)c1" when tested on recombinant human GR (Homo sapiens).
Result: 3.9

Q: Recall the reported IC50 of "Cc1cc(C)c([C@@H](Oc2ccc3c(cnn3-c3ccc(F)cc3)c2)[C@H](C)NC(=O)C(F)(F)F)cc1C" when tested on recombinant human GR (Homo sapiens).
Result: 14

Q: Recall the reported IC50 of "COc1cccc([C@@H](Oc2ccc3c(cnn3-c3ccc(F)cc3)c2)[C@H](C)NC(=O)c2cocn2)c1" when tested on recombinant human GR (Homo sapiens).
Result: 2.1

Q: Recall the reported IC50 of "COCC(=O)N[C@@H](CC(C)C)[C@H](Oc1ccc2c(cnn2-c2ccc(F)cc2)c1)c1cccc(F)c1" when tested on recombinant human GR (Homo sapiens).
Result: 23

Q: Recall the reported IC50 of "Cc1ccc(C)c([C@@H](Oc2ccc3c(cnn3-c3ccc(F)cc3)c2)[C@H](C)NC(=O)c2ncc(C)s2)c1" when tested on recombinant human GR (Homo sapiens).
Result: 6.2

Q: Recall the reported IC50 of "C[C@H](NC(=O)C(F)(F)F)[C@H](Oc1ccc2c(cnn2-c2ccc(Cl)nn2)c1)c1ccccc1" when tested on recombinant human GR (Homo sapiens).
Result: 3.1

Q: Recall the reported IC50 of "C[C@H](NC(=O)C(C)(C)F)[C@H](Oc1ccc2c(cnn2-c2ccc(F)cc2)c1)c1ccc(F)c(F)c1" when tested on recombinant human GR (Homo sapiens).
Result: 4.9

Q: Recall the reported IC50 of "C[C@H](NC(=O)C1(C)CC1)[C@H](Oc1ccc2c(cnn2-c2ccc(F)cc2)c1)c1cccc(Cl)c1" when tested on recombinant human GR (Homo sapiens).
Result: 3.3

Q: Recall the reported IC50 of "C[C@H](NC(=O)NCc1ccco1)[C@H](Oc1ccc2c(cnn2-c2ccc(F)cc2)c1)c1ccccc1" when tested on recombinant human GR (Homo sapiens).
Result: 3.2

Q: Recall the reported IC50 of "C[C@H](NC(=O)C(F)(F)F)[C@H](Oc1ccc2c(cnn2-c2cccc(CN3CCOCC3)c2)c1)c1ccccc1" when tested on recombinant human GR (Homo sapiens).
Result: 5.5

Q: Recall the reported IC50 of "CC[C@H](NC(=O)C(C)(C)C)[C@H](Oc1ccc2c(cnn2-c2ccc(F)cc2)c1)c1ccccc1" when tested on recombinant human GR (Homo sapiens).
Result: 3.5

Q: Recall the reported IC50 of "CC(C)C[C@H](NC(=O)C(F)(F)F)[C@H](Oc1ccc2c(cnn2-c2ccc(F)cc2)c1)c1cccc(F)c1" when tested on recombinant human GR (Homo sapiens).
Result: 29

Q: Recall the reported IC50 of "C[C@H](NC(=O)C(F)(F)F)[C@H](Oc1ccc2c(cnn2-c2ccc(F)cc2)c1)c1cccc(Cl)c1" when tested on recombinant human GR (Homo sapiens).
Result: 5

Q: Recall the reported IC50 of "COCC(=O)N[C@@H](C)[C@H](Oc1ccc2c(cnn2-c2ccccn2)c1)c1ccccc1" when tested on recombinant human GR (Homo sapiens).
Result: 2.9

Q: Recall the reported IC50 of "Cc1ccc(F)cc1[C@@H](Oc1ccc2c(cnn2-c2ccc(F)cc2)c1)[C@H](C)NC(=O)C(C)(C)C" when tested on recombinant human GR (Homo sapiens).
Result: 6.8

Q: Recall the reported IC50 of "COc1ccccc1[C@@H](Oc1ccc2c(cnn2-c2ccc(F)cc2)c1)[C@H](C)NC(=O)C(F)(F)F" when tested on recombinant human GR (Homo sapiens).
Result: 4.2

Q: Recall the reported IC50 of "C[C@H](NC(=O)C(C)(F)F)[C@H](Oc1ccc2c(cnn2-c2ccc(F)cc2)c1)c1cccc(F)c1" when tested on recombinant human GR (Homo sapiens).
Result: 4.8

Q: Recall the reported IC50 of "COCC(=O)N[C@@H](C)[C@H](Oc1ccc2c(cnn2-c2ccc(F)cc2)c1)c1ccc(C(F)(F)F)cc1" when tested on recombinant human GR (Homo sapiens).
Result: 3.3

Q: Recall the reported IC50 of "C[C@H](NC(=O)C(F)(F)F)[C@H](Oc1ccc2c(cnn2-c2ccc(F)cc2)c1)c1cccc(F)c1" when tested on recombinant human GR (Homo sapiens).
Result: 3.6

Q: Recall the reported IC50 of "C[C@H](NC(=O)C(Cl)(Cl)Cl)[C@H](Oc1ccc2c(cnn2-c2ccc(F)cc2)c1)c1ccccc1" when tested on recombinant human GR (Homo sapiens).
Result: 3.4

Q: Recall the reported IC50 of "COc1cccc([C@@H](Oc2ccc3c(cnn3-c3ccc(F)cc3)c2)[C@H](C)NC(=O)c2scnc2C)c1" when tested on recombinant human GR (Homo sapiens).
Result: 3.9

Q: Recall the reported IC50 of "Cc1ccc([C@@H](Oc2ccc3c(cnn3-c3ccc(F)cc3)c2)[C@H](C)NC(=O)C(F)(F)F)cc1F" when tested on recombinant human GR (Homo sapiens).
Result: 32
